- Experimental System: Gal(a1-3)Gal(b1-4)GlcNAc
- Test Name: glycan array binding signal (z-score within array); higher = stronger binding
- Conditions: glycan notation: IUPAC condensed, linker removed
This excerpt belongs to a sample that is enriched for the strongest signals.
Give measured glycan array binding signal (z-score) for each item. Keep answers brief.

Task: What does the data say about its glycan array binding signal (z-score)? Entry: STA (Solanum tuberosum) (protein) NASAPLPYPQCGLKKGGGKCIKTGECCSIWGWCGTTSDYCAPGYCQKQCPGPYPQGRCGWQANGKSCPTGTGQCCSNAGWCGTTSDYCAPNNCQSQCKLPPPPPSPPPPPPSPPPPSPPPPPPSPPPPSPSPPPPPPSPPPPSPPPPSPPPPSPPPPPSPSPPPPPPSPPPPPPPLPYPQCGMKKGGGKCIKTGECCSIWGWCGTTSKYCSPGYCQMQCPDPYPEGRCGWQANGKSCPTGTGQCCSNAGWCGTTSAYCAPVNCQAQCNTTTLTSPIKNRMRGIESFMLNVV
Output: 3.27

Task: Would you kindly share the measured glycan array binding signal (z-score) for Clec12b (Mus musculus), Q149M0 (protein) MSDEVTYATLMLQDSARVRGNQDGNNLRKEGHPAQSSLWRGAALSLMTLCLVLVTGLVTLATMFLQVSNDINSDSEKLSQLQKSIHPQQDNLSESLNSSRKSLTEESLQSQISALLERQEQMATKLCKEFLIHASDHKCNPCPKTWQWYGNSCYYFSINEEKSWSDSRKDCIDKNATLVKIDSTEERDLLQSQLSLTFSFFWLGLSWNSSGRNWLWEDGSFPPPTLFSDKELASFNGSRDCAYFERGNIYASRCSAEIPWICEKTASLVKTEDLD ?
Output: 0.53
